Tested on: T-47D breast
protocolDetails: NCI tumour cell line growth inhibition, 48 h; in the data active = GI50 below about 0.43 µM; inactive = the rest
A correct response names exactly one class from active, inactive

Example entries and their recorded answers appear below.
# compound, systemUnderTest, groupLabel
rows = [
    ("C=C1CCC2C3(C)COC(c4ccc(Cl)cc4)OC3CCC2(C)C1/C=C/C1=CCOC1=O (configuration not stated)", "T-47D breast", "inactive"),
    ("N#Cc1c(N)nc(N2CCSCC2)c(C#N)c1-c1ccc(O)cc1", "T-47D breast", "inactive"),
    ("O=C(NNC(=S)Nc1ccccc1)c1ccccn1", "T-47D breast", "inactive"),
    ("O=C(Nc1cccnc1)c1ccc2ccc3ccc(C(=O)Nc4cccnc4)nc3c2n1", "T-47D breast", "active"),
    ("Cc1cn2c(/C=C3/C(=O)Nc4ccc(F)cc43)c(C)nc2s1", "T-47D breast", "inactive"),
]

Please share the test call associated with CC(C)CCC(=O)[C@@H](C)[C@H]1[C@@H](OC2OCC(O)C(O)C2NS(C)(=O)=O)C[C@H]2[C@@H]3CC=C4C[C@@H](O)CC[C@]4(C)[C@H]3CC[C@]12C (some centres not stated) .
inactive

Short answer needed: outcome of this test for O=C(Cn1c(C(=O)c2ccccc2)nc2ccccc21)c1ccc(F)cc1 ?
inactive
